target desc: NB7+Caspase-8
procedure details: compound enhancement of TRAIL-induced cell killing – NB7 cells plus caspase-8, luminescence, panel, dose response (AID 652002)
applied conditions: NB7 neuroblastoma +caspase-8, TRAIL sensitization, luminescence viability, with TRAIL, run 1, single replicate panel EC50
pEC50: −log10 of the molar value.
measure: pEC50

INSERT INTO results (compound, measure, value_observed) VALUES
  ('O=c1[nH]c(N/N=C\c2ccc3c(c2)OCO3)nc2ccccc12', 'pEC50', '< 4.90'),
  ('Cc1cccc2nc(=S)n(C(=O)c3ccco3)n12', 'pEC50', '< 4.90'),
  ('CCSc1ccc(-c2ccc(C)cc2)nn1', 'pEC50', '< 4.90'),
  ('O=C1c2ccc3c4c(ccc(c24)C(=O)N1c1cccc(O)c1)C(=O)N(c1cccc(O)c1)C3=O', 'pEC50', 5.63),
  ('Clc1nc(Cl)c2ncn(-c3ccccc3)c2n1', 'pEC50', '< 4.90'),
  ('COc1cccc(C(=O)Nc2ccc(C3CC3(Cl)Cl)cc2)c1 (configuration not stated)', 'pEC50', '< 4.90'),
  ('Cn1c(=O)c2c(SCC(=O)Nc3ccccc3F)nc(C3CC3)nc2n(C)c1=O', 'pEC50', '< 4.90'),
  ('Cc1ccc2c(c1)-c1nc3ccccc3cc1C2=NC1CCCCC1', 'pEC50', '< 4.90'),
  ('O=C(NC(=S)Nc1nc2c(s1)CCCC2)c1ccccc1', 'pEC50', 5.13),
  ('O=Nc1ccc(NO)c2ccccc12', 'pEC50', '< 4.90'),
  ('C(=C\c1ccco1)/c1nc2ccccc2[nH]1', 'pEC50', '< 4.90'),
  ('CN(C)c1ccc(N/C=C/C(=O)c2ccco2)cc1', 'pEC50', 5.11);

* * *

procedure details: compound enhancement of TRAIL-induced cell killing – NB7 cells plus caspase-8, luminescence, panel, dose response (AID 652002)
applied conditions: NB7 neuroblastoma +caspase-8, no TRAIL, compound-alone cytotoxicity counter-screen, luminescence viability; NB7+Caspase-8; mean of runs
Activity calls are given as the source filed them. No rule for the calls is given here.
measure: EC50

INSERT INTO assay_data (molecule, value_observed) VALUES
  ('COc1cc(NC(=O)c2[nH]cnc2C(N)=O)cc(C(=O)Nc2cccc(C(F)(F)F)c2)c1', 'inactive'),
  ('O=c1cc(-c2ccccc2)nc2cc(-c3ccc(F)cc3)[nH]n12', '> 12.5 µM (inactive)'),
  ('Cn1nnc(NC(=O)c2ccc(C(C)(C)C)cc2)n1', 'inactive'),
  ('O=C1Cc2c(-c3ccccc3)cc(-c3cccc(Cl)c3)nc2-c2ccccc2N1', '> 12.5 µM (inactive)'),
  ('COc1ccc(-c2nnc(SCC(=O)c3[nH]c(C)c(C(C)=O)c3C)o2)cc1', '> 12.5 µM (inactive)'),
  ('Cc1nc2cc(NC(=O)c3ccco3)ccc2n1C', 'inactive'),
  ('CCOc1ccc(/C=C/C(=O)Nc2cccc(C(C)=O)c2)cc1', '> 12.5 µM (inactive)'),
  ('CCOc1ccc(-c2nnc(-c3ccccc3)o2)cc1', '> 12.5 µM (inactive)'),
  ('COc1ccccc1/C=C/C=N/n1c(-c2cc(-c3ccccc3)n[nH]2)n[nH]c1=S', '> 12.5 µM (inactive)'),
  ('CN(C)S(=O)(=O)c1ccc(C(=O)Nc2nnc(SCC(=O)NCC3CCCO3)s2)cc1 (stereo unspecified)', '> 12.5 µM (inactive)'),
  ('Cc1cc(N/N=C/c2ccccc2)nc(NCc2ccccc2)n1', '> 12.5 µM (inactive)');

* * *

procedure details: compound enhancement of TRAIL-induced cell killing – NB7 cells plus caspase-8, luminescence, panel, dose response (AID 652002)
applied conditions: NB7 neuroblastoma +caspase-8, no TRAIL, compound-alone cytotoxicity counter-screen, luminescence viability; NB7+Caspase-8; mean of runs
Activity calls are given as the source filed them. How the calls were made is not given here.
measure: EC50

INSERT INTO results (compound, measure, value_observed) VALUES
  ('CCOC(=O)c1sc(NC(=O)c2cccc(S(=O)(=O)N3CCc4ccccc43)c2)c(C#N)c1C', 'EC50', '> 12.5 µM (inactive)'),
  ('Nc1ccccc1C(=O)NN=Cc1cccc([N+](=O)[O-])c1', 'EC50', 'inactive'),
  ('CCOc1ccc(NC(=O)c2ccco2)cc1', 'EC50', 'inactive'),
  ('CCOC(=O)[C@]12Cc3cc4ccccc4cc3[C@H]1N(Cc1ccccc1)C(=O)c1cc(OC)ccc12', 'EC50', '> 12.5 µM (inactive)'),
  ('CN(C)c1ccc(N/C=C/C(=O)c2ccco2)cc1', 'EC50', 'inactive'),
  ('CC(C)CCn1c(=O)c(C(=O)Nc2ccccc2S(N)(=O)=O)c(O)c2ccccc21', 'EC50', '> 12.5 µM (inactive)'),
  ('Cc1ccc2oc(-c3cccc(N)c3)nc2c1', 'EC50', 'inactive'),
  ('CC(C)C(=O)Nc1ccc(NC(=O)c2ccccn2)cn1', 'EC50', 'inactive'),
  ('COc1ccc(-c2cc(C(=O)N/N=C/c3cccnc3)c3ccccc3n2)cc1', 'EC50', 'inactive'),
  ('Cc1ccc2c(c1)C(=NC1CCCCC1)c1cc3ccccc3nc1-2', 'EC50', '> 12.5 µM (inactive)'),
  ('NNC(=O)C1CCCn2c1nc1sc3c(c1c2=O)CCCC3 (centres undefined)', 'EC50', '> 12.5 µM (inactive)'),
  ('CCOc1ccc2nc(NC(=O)c3cccc(-c4cc5ccccc5oc4=O)c3)sc2c1', 'EC50', '> 12.5 µM (inactive)'),
  ('CN(C)CCCN(C(=O)c1ccc(S(=O)(=O)N2CCCc3ccccc32)cc1)c1nc2ccc(F)cc2s1', 'EC50', '> 12.5 µM (inactive)'),
  ('O=C(N/N=C/c1cccnc1)c1ccc2c(c1)OCO2', 'EC50', 'inactive'),
  ('CC(C)C[C@H](NC(=O)c1nc[nH]c1C(=O)N[C@@H](CCCCNC(=O)OC(C)(C)C)C(=O)OC(C)(C)C)C(=O)OCc1ccccc1', 'EC50', '> 12.5 µM (inactive)'),
  ('COc1cccc(NC(=O)Nc2nccc(C)n2)c1', 'EC50', '> 12.5 µM (inactive)'),
  ('c1ccc(-c2cnc(-c3ccccn3)nn2)cc1', 'EC50', 'inactive'),
  ('CCN(CC)c1ccc(NC(=O)Nc2ccccc2)cc1', 'EC50', 'inactive'),
  ('Cc1ccc(-n2nnc(-c3cccnc3Cl)n2)cc1', 'EC50', '> 12.5 µM (inactive)'),
  ('CC1(C)N=C(N)N=C(N)N1c1ccc(Oc2ccc(Cl)cc2)c(Cl)c1', 'EC50', 'inactive'),
  ('CCOc1ccc(NC(=O)Nc2cccs2)cc1', 'EC50', 'inactive'),
  ('Cc1ccc2c(c1)-c1nc3ccccc3cc1C2=NC1CCCCC1', 'EC50', '> 12.5 µM (inactive)'),
  ('O=Nc1ccc(NO)c2ccccc12', 'EC50', '> 12.5 µM (inactive)'),
  ('CCCCc1nc(NCCN)c(C#N)c2c1CSC(C)(C)C2', 'EC50', '> 12.5 µM (inactive)'),
  ('CC(C)C[C@H](NC(=O)c1nc[nH]c1C(=O)N[C@@H](CC(C)C)C(=O)OCc1ccccc1)C(=O)OCc1ccccc1', 'EC50', '> 12.5 µM (inactive)'),
  ('C#CC(=O)CC1(CN(Cc2ccccc2)C(=O)OC(C)(C)C)CCCCC1', 'EC50', 'inactive'),
  ('Cc1cccc2nc(=S)n(C(=O)c3ccco3)n12', 'EC50', '> 12.5 µM (inactive)'),
  ('COc1ccc(NS(=O)(=O)c2cccc(C(=O)N/N=C/c3c(F)c(F)c(F)c(F)c3F)c2)cc1', 'EC50', 'inactive'),
  ('Cc1ccc(N=C/C(C(=O)C(F)(F)F)=C(\O)c2cccs2)cc1', 'EC50', 'inactive'),
  ('O=C(NC1=NCCS1)c1cc2ccccc2o1', 'EC50', 'inactive'),
  ('COCCNc1c(-c2cc3ccc(C)c(C)c3[nH]c2=O)nc2ccccn12', 'EC50', 'inactive'),
  ('Clc1nc(Cl)c2ncn(-c3ccccc3)c2n1', 'EC50', '> 12.5 µM (inactive)'),
  ('Cn1c(=O)c2c(SCC(=O)Nc3ccccc3F)nc(C3CC3)nc2n(C)c1=O', 'EC50', '> 12.5 µM (inactive)'),
  ('C/C(=N\NC(=O)c1csc(C)c1C)c1ccco1', 'EC50', '> 12.5 µM (inactive)'),
  ('CCCCC1CCC(C(=O)N(CCC(C)C)c2c(N)n(CCCC)c(=O)[nH]c2=O)CC1 (centres undefined)', 'EC50', '> 12.5 µM (inactive)'),
  ('CCOC(=O)c1ccc(N/C=C/C(=O)c2ccco2)cc1', 'EC50', '> 12.5 µM (inactive)'),
  ('COc1ccccc1C=NNC(=O)NN=Cc1ccccc1OC', 'EC50', 'inactive'),
  ('CCOC(=O)c1cccc(-[n+]2c(-c3ccccc3)cc(-c3ccccc3)cc2-c2ccccc2)c1', 'EC50', '> 12.5 µM (inactive)'),
  ('O=C1CCCc2nc(N3CCc4ccccc43)ncc21', 'EC50', '> 12.5 µM (inactive)'),
  ('COCCNC(=O)c1cc(-c2ccc(-c3ccccc3)cc2)nc2ccccc12', 'EC50', 'inactive'),
  ('COC(=O)c1ccc(/C=C/c2nc3ccccc3c(=O)[nH]2)cc1', 'EC50', '> 12.5 µM (inactive)'),
  ('O/C(=C\c1ccc2ccccc2n1)c1ccc(O)cc1O', 'EC50', '> 12.5 µM (inactive)'),
  ('O=C1c2ccc(Cl)cc2S(=O)(=O)c2cccc(C(=O)N3CCC(Cc4ccccc4)CC3)c21', 'EC50', '> 12.5 µM (inactive)'),
  ('Cc1ccc(S(=O)(=O)Nc2ccccc2C(=O)Nc2nc(-c3ccc(F)cc3)cs2)cc1', 'EC50', 'inactive');

// provenance: PubChem BioAssay AID652002
